Tested on: Plasmodium berghei
Assay info: Screen against P. berghei liver stage (PbLuc), transformed with Luciferase, at 10uM
Type: functional, HepG2
Assay setup: tested at 10 uM
The whole screen tested about 69,000 compounds, of which about 8,600 (12%) showed an effect of 50% or more. Shown is part of a subset that was picked to be rich in strong results.
Given measured INHIBITION, output T if it is greater than or equal to 20% and F if not.

Would you please look over these solved cases?
• CNC(=O)CC1COCCN1C(=O)C1(c2ccc(Cl)cc2)CCC1 (configuration not stated) = T
• O=C(O)CC1COCCN1C(=O)C1(c2ccc(Cl)cc2)CCC1 (configuration not stated) = F

## Task Dear colleague, could you confirm whether Cc1noc(C2CCC3(CCN(C(=O)c4ccn(C)n4)CC3)O2)n1 (configuration not stated) has INHIBITION at or above 20%?
## Result F

## Task Dear colleague, could you confirm whether CCc1nc(CN2CCCN(c3nccs3)CC2)no1 has INHIBITION at or above 20%?
## Result T

## Task Dear colleague, could you confirm whether CC(C)Nc1cccc(CNC(=O)N2CCCC2)c1 has INHIBITION at or above 20%?
## Result T

## Task Dear colleague, could you confirm whether CCOCc1ccc(NC(=O)N2CCOC3(CCC3)C2)cc1 has INHIBITION at or above 20%?
## Result F

## Task Dear colleague, could you confirm whether Cc1nc(CN2CCCN(c3nccs3)CC2)no1 has INHIBITION at or above 20%?
## Result F

## Task Dear colleague, could you confirm whether CCc1nc(CN2CCCN(c3ncnc4sccc34)CC2)no1 has INHIBITION at or above 20%?
## Result T

## Task Dear colleague, could you confirm whether CC(C)Nc1cccc(CNC(=O)N2CCC[C@@H]2CO)c1 has INHIBITION at or above 20%?
## Result T

## Task Dear colleague, could you confirm whether CCN1CCCC12CCN(C(=O)c1nccn1C)CC2 has INHIBITION at or above 20%?
## Result F

## Task Dear colleague, could you confirm whether CC(C)Nc1cccc(CNC(=O)N2CCC(N3CC=CC3)C2)c1 (configuration not stated) has INHIBITION at or above 20%?
## Result F

## Task Dear colleague, could you confirm whether CC(=O)N(Cc1ncc(C)o1)C1CCN(Cc2ccon2)C1 (configuration not stated) has INHIBITION at or above 20%?
## Result F

Every entry's value here was drawn from ChEMBL document CHEMBL4513216.
